Biological target: FKBP12 (Homo sapiens, UniProt P62942)
Sequence (P62942 whole entry): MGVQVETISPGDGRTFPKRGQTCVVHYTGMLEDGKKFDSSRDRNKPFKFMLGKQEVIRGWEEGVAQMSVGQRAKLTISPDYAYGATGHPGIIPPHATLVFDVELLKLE
Assay: Inhibition of peptidyl-prolyl isomerase (rotamase) activity of FKBP, chymotrypsin-coupled assay
Type: biochemical
Settings: Table V; read-out: Ki rotomase

compound: CCC(C)(C)C(=O)C(=O)N1CCS[C@H]1C(=O)OCCCc1cccnc1 [F]
Ki / nM: 272
//
compound: CCC(C)(C)C(=O)C(=O)N1CCC[C@H]1C(=O)OCCCc1cccnc1 [GPI 1046]
Ki / nM: 7.5
//
compound: CCC(C)(C)C(=O)C(=O)N1CCCC[C@H]1C(=O)CCCCc1cccnc1 [J]
Ki / nM: 210

====

# reported Ki; entries follow
Molecular target: FKBP12 (Homo sapiens, UniProt P62942)
Test: Inhibition of peptidyl-prolyl isomerase (rotamase) activity of FKBP, chymotrypsin-coupled assay
Type: biochemical
Settings: apparent Ki; Table B; read-out: Ki
quantity: Ki (nM)

molecule: O=C(OCCCCc1ccccc1)C1CCCCN1S(=O)(=O)c1ccccc1 (stereo not drawn)
quantity: Ki
u: nM
result.number: 470
--
molecule: Cc1ccc(S(=O)(=O)N2CCCCC2C(=O)OCCCCc2ccccc2)cc1 (stereo not drawn)
quantity: Ki
u: nM
result.number: 504
--
molecule: Cc1ccc(S(=O)(=O)N2CCCCC2C(=O)OC(CCCc2ccccc2)CCCc2ccccc2)cc1 (stereo not drawn)
quantity: Ki
u: nM
result.number: 107

====

Tested on: retinal ganglion cell axons
Test: Protection of retinal ganglion cell axons from degeneration following optic nerve transection, RT 97 axon density (Table V)
Format: in vivo
quantity: RT 97 RCC axon density 11 days after ON transection (36 ON axon rescued) (%)

compound: O=C(OCCCc1cccnc1)[C@@H]1CCCN1C(=S)NC1CCCCC1
u: %
result.number: 23.8
--
compound: CCC(C)(C)C(=O)C(=O)N1CCCC[C@H]1C(=O)SCCC(c1ccccc1)c1ccccc1
u: %
result.number: 13.0
--
compound: CCC(C)(C)C(=O)C(=O)N1CCC[C@H]1C(=O)OCCCc1cccnc1
u: %
result.number: 60.5
--
compound: O=C(OCCCCc1ccccc1)[C@@H]1CCCCN1S(=O)(=O)Cc1ccccc1
u: %
result.number: 58.4
--
compound: O=C(SCCCc1ccccc1)[C@@H]1CCCN1C(=O)NC12CC3CC(CC(C3)C1)C2
u: %
result.number: 100
--
compound: CCC(C)(C)C(=O)C(=O)N1CCC[C@H]1C(=O)O
u: %
result.number: 7.8
--
compound: CCC(C)(C)C(=O)C(=O)N1CCCC[C@H]1C(=O)CCCCc1cccnc1
u: %
result.number: 15.8
--
compound: CCC(C)(C)C(=O)C(=O)N1CCCC[C@H]1C(=O)O [G]
u: %
result.number: 34.0
--
compound: CCC(C)(C)C(=O)C(=O)N1CCC[C@H]1C(=O)SCCC(c1ccccc1)c1ccccc1
u: %
result.number: -6.3
--
compound: O=C(SCCCc1ccccc1)[C@@H]1CCCN1S(=O)(=O)Cc1ccccc1
u: %
result.number: 60.4

====

Test system: retinal ganglion cell axons
Experiment: Protection of retinal ganglion cell axons from degeneration following optic nerve transection, RT 97 axon density (Table V)
Type: in vivo
# reported RT 97 RCC axon density 11 days after ON transection (36 ON axon rescued); entries follow
quantity: RT 97 RCC axon density 11 days after ON transection (36 ON axon rescued) (%)

molecule: CCC(C)(C)C(=O)CN1CCCCC1C(=O)OC(CCc1ccccc1)CCc1ccccc1 (stereo not drawn) [E]
u: %
result.number: 56.6
--
molecule: CCC(C)(C)C(=O)C(=O)N1CCS[C@H]1C(=O)OCCCc1cccnc1 [F]
u: %
result.number: 55.1
--
molecule: CCC(C)(C)C(=O)C(=O)N1CCCC[C@H]1C(=O)O [H]
u: %
result.number: 30.3

Reference for the values: patent US6333340A
